TEST SYSTEM: anti-CD28 scFv (VH - linker 1 - VL) (biotinylated (site not stated))
Sequence (scFv, as listed by the source): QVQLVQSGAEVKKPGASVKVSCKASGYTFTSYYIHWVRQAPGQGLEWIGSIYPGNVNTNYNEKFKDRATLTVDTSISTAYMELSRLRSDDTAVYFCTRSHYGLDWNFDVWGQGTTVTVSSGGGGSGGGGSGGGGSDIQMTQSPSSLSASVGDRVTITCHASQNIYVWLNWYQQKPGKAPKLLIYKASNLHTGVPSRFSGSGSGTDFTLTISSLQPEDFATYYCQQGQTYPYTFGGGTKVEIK
PROTOCOL: same phage ELISA, wells pre-incubated with soluble CD28 (competitor)
ATTRIBUTE MEASURED: CD28 scFv signal in presence of CD28
Please reply with the value in numeric form only.

Per the record, MDWCPMHLWHQCFN (peptide, not shown: large carriers, Clonal phage supernatant) [Phage-39] has CD28 scFv signal in presence of CD28 of 0.299
